- ASSAY_TARGET: human dopamine D2 receptor (hD2R) (Homo sapiens)
- Sequence (P14416 whole entry): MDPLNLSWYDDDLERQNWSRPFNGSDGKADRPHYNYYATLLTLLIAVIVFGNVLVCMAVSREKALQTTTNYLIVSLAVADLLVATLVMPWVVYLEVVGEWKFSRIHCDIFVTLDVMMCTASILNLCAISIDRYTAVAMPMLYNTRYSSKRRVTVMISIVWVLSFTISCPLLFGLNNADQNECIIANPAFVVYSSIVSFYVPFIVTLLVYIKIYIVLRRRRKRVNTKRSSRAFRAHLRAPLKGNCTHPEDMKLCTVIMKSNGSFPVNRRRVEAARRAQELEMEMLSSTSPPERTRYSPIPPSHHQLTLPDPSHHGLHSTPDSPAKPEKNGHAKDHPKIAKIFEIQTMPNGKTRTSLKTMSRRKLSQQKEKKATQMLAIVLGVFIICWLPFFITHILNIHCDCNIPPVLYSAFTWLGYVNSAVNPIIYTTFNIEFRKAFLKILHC
- PROTOCOL_SUMMARY: Human D2 receptor binding assay ([^3H]-Spiperone)
- EXPERIMENTAL_CONDITIONS: CHO cells expressing hD2R, geometric mean of 2-5 determinations unless marked b (single determination)
ATTRIBUTE_MEASURED: Ki (nM)

Example compounds with recorded Ki:
// Ki (human dopamine D2 receptor (hD2R) (Homo sapiens)) for COc1nc2c(cc1NS(=O)(=O)c1ccc(C3CCCCO3)cc1)CCN(C)CC2 (centres unmarked) = 54.6

// Ki (human dopamine D2 receptor (hD2R) (Homo sapiens)) for COc1nc2c(cc1NS(=O)(=O)c1ccc([C@H]3CCCCO3)nc1)CCN(C)CC2 = 786

// Ki (human dopamine D2 receptor (hD2R) (Homo sapiens)) for COc1nc2c(cc1NS(=O)(=O)c1ccc(Cl)cc1)CCN(C)CC2 = 400

P: COc1nc2c(cc1NS(=O)(=O)c1ccc(C3CCCOC3)cc1)CCN(C)CC2 (racemic) [Example 77]
Q: CCN1CCc2cc(NS(=O)(=O)c3ccc(C)cc3)c(OC)nc2CC1
IN: For P and Q , which recorded Ki is lower? Mark your selection by writing its label.
OUT: Q

* * *

- ASSAY_TARGET: human dopamine D3 receptor (hD3R) (Homo sapiens, UniProt P35462)
- Sequence (P35462 whole entry): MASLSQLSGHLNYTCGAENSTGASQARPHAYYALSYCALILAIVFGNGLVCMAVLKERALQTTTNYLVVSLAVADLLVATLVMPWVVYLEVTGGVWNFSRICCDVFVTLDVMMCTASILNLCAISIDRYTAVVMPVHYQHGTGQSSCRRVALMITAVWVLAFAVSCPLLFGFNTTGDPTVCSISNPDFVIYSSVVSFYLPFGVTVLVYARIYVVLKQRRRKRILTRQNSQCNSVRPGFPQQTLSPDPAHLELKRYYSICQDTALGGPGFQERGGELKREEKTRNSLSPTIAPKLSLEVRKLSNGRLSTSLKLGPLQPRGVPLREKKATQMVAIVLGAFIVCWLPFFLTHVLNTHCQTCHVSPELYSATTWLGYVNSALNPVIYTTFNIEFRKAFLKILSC
- PROTOCOL_SUMMARY: Human D3 receptor binding assay ([^3H]-7-OH-DPAT)
- EXPERIMENTAL_CONDITIONS: CHO cells expressing hD3R, geometric mean of 2-5 determinations unless marked b (single determination), read-out: hD3 in CHO cells Ki
ATTRIBUTE_MEASURED: Ki (nM)

Example compounds with recorded Ki:
Per the records, this compound ( COc1nc2c(cc1NS(=O)(=O)c1ccc(C3CCOC(C)C3)cc1)CCN(C)CC2 (single isomer, unassigned) [Example 85] ) has Ki equal to 3.24

Per the records, this compound ( COc1nc2c(cc1NS(=O)(=O)c1ccc([C@@H]3CCCCO3)c(C)c1)CCN(C)CC2 ) has Ki equal to 0.46

Per the records, this compound ( CCN1CCc2cc(NS(=O)(=O)c3ccc(C4CCCCO4)cc3)c(OC)nc2CC1 (racemic) [Example 70] ) has Ki equal to 2

1: COc1nc2c(cc1NS(=O)(=O)c1cnc(OC3CCCC3)c(C)c1)CCN(C)CC2
2: COc1nc2c(cc1NS(=O)(=O)c1ccc(C3(F)CCC(OC)CC3)cc1)CCN(C)CC2 (single isomer, unassigned) [Example 39]
IN: Sort 1 and 2 by Ki descending and give the first. Mark your selection by writing its label.
OUT: 2
(2: 1.95 nM, 1: 0.79 nM)

a: COc1nc2c(cc1NS(=O)(=O)c1ccc(C3CC(F)CCO3)cc1)CCN(C)CC2 (single isomer, unassigned) [Example 106]
b: COc1nc2c(cc1NS(=O)(=O)c1ccc(C3(F)CCC(OC)CC3)cc1)CCN(C)CC2 (single isomer, unassigned) [Example 93]
c: CCN1CCc2cc(NS(=O)(=O)c3ccc(OC4CCCC4)nc3)c(OC)nc2CC1
d: CCN1CCc2cc(NS(=O)(=O)c3ccc(Oc4ccccc4)nc3)c(OC)nc2CC1
e: COc1nc2c(cc1NS(=O)(=O)c1cnc(C3CCCCC3)nc1)CCN(C)CC2
IN: Please list these in order of increasing Ki. Thank you! // ordering of labels required in reply
OUT: c, b, d, a, e
(c: 0.859 nM, b: 2.03 nM, d: 2.94 nM, a: 4.31 nM, e: 32.2 nM)

A: CCN1CCc2cc(NS(=O)(=O)c3ccc4c(c3)CCCO4)c(OC)nc2CC1
B: COc1nc2c(cc1NS(=O)(=O)c1ccc([C@@H]3CCCCO3)cc1)CCN(C)CC2
C: CCN1CCc2cc(NS(=O)(=O)c3ccc(OC(F)F)cc3)c(OC)nc2CC1
IN: Please rank these compounds by Ki in descending order. // ordering of labels required in reply
OUT: C, A, B
(C: 11.6 nM, A: 4.4 nM, B: 2.09 nM)

I: COc1nc2c(cc1NS(=O)(=O)c1ccc(OC3CCOC3)nc1)CCN(C)CC2 (stereo not shown)
II: COc1nc2c(cc1NS(=O)(=O)c1ccc(OC3CCC3)nc1)CCN(C)CC2
IN: For I and II , which recorded Ki is lower? Mark your selection by writing its label.
OUT: II
(II: 1.95 nM, I: 5.89 nM)
